# System: MS2 coat protein
# assay_protocol: apparent KD of MS2 coat protein; higher = weaker reporter binding
# experimental_parameters: Eterna round: R107; input ligand: theophylline 2 mM
Threshold rule: apparent KD of MS2 coat protein greater than or equal to 30 nM is criterion met; below that, criterion not met.

Can GAUAUGGAAACAUGUCAGAUCCUUACCGGUCGAGGACCGGUACGGCCGCCACUCGAAAACGAGGAACAUGAGGAUCACCCAUGUA [Ex Tryptophan A 20] be said to have apparent KD of MS2 coat protein at or above 30 nM? criterion met

Record ACAUUAGCCACGGCCGCCACUGCUUUAUGAUUAUAAGGAUUAAUGAACAUGAGGAUCACCCAUGUCAGGACCGGGUGCCUACCAU [SSTryp B #4] ; criterion: apparent KD of MS2 coat protein no lower than 30 nM. Met? criterion met

Check this sequence for apparent KD of MS2 coat protein at or above 30 nM: CUAAGAGUAGGAAGGAGCGACAUGAGGAUCACCCAUGUGGCUCUCAUGGCCCGGGUCUUAUGUCAGGUAGGUCGCCUACUGUUUA [Solave] criterion not met

Could you verify whether the entry GAAUUUAUAUGAAGGAGCGUCGAAAAUGGGUAAACAUGAGGAUCACCCAUGUAAAGGGAACGACAGGUAGGUCGCAUAUGGAUUC [AstromonsSSArgB#26] shows apparent KD of MS2 coat protein of no less than 30 nM? criterion met

Identify whether the reported apparent KD of MS2 coat protein of the following sequence is 30 nM or greater: CGUGGUGGGACGGAUACCAGCCACCGCGGCAACGCAACAUGAGGAUCACCCAUGUUGGGUGGCCCUUGGCAGCUGUCCUGCGACG [#1 Same State - Theophylline B Attempt #27 (HarryS)] criterion not met

Identify whether the reported apparent KD of MS2 coat protein of the following sequence is 30 nM or greater: GGACUAACCAGAAGGAGCGACACGCAGAAACUGCAAAUUCCUCCACACGAGGAUCACCCGUGUCAGGUAGGUCGCUGGUUAGUCG criterion not met

Threshold query (apparent KD of MS2 coat protein >= 30 nM) on AAUAUAUAUCACGAACUGUGGUGUAUGUUGCGAGGACCGGUACGGCCGCCACUCGACCGGUGGUACAUGAGGAUCACCCAUGUUG [XTryp A #10] criterion met

Reported apparent KD of MS2 coat protein reaches at least 30 nM for UGAUAUGUGGGAAGGAGCGCAUACUUCACAUGAGGAUCACCCAUGUCAAGACGUGAGUCAGUGCAGGUAGGUCGCCUAGUUAUGA [Same State - Arginine B (Freestyle 19)] ? criterion met

Is it the case that CGGUAGGUAGGUCGAUAUCUACCCGUAGAAGGAGCGUAAGAAAAUACAGGUAGGUCGCUACGGAACAUGAGCAUCAGCCAUGUCC [SSArg A #12-Alt Ms2] has apparent KD of MS2 coat protein reaching or exceeding 30 nM? criterion not met

###

# Tested on: MS2 coat protein
# assay_protocol: apparent KD of MS2 coat protein; higher = weaker reporter binding
# experimental_parameters: Eterna round: R107; input ligand: tryptophan 2.4 mM
# cutoff 20 nM applies to apparent KD of MS2 coat protein; >= gives Fulfilled, < gives Not fulfilled

# check: apparent KD of MS2 coat protein of ACAUGAGGGCGAAGGAGCGCGAACAUGAGGAUCACCCAUGUGUAUGUAUGUUGUCAUGUAUCGCAGGUAGGUCGCGCUGUUACAU [Exclusion Arginine B] is greater than or equal to 20 nM Fulfilled

apparent KD of MS2 coat protein >= 20 nM for GACGGGCCUAUUGAUACCAGACCUAGUGACAACAUGAGGAUCACCCAUGUGACGGCAAAAGUCCCUUGGCAGCAAGUAGAAAUAA [theeternabot_sameState_MS2_Theo_B_41] ? Not fulfilled

Entry GAUUUAACAAAAGUUGGAUCAGUGGGUGAACGAGGACCGGUACGGCCGCCACUCGGACAUGAGGAUCACCCAUGUCCAUGUGAAA [AstrosExyTryA#19] : is its apparent KD of MS2 coat protein no less than 20 nM? Fulfilled

Does the reported apparent KD of MS2 coat protein for ACAUGAGGAUCACCCAUGUAGUAGUCAGAAGGAGCGUGGAAUAACACAGGUAGGUCGCUGAUGUUUGGUUAAAUGUAAUCGUGUA [#30 Same State - Arginine A] fall at or above the 20 nM mark? Not fulfilled

Hi, just wondering whether AAACAUGACAUGGAUACCAGACACAUGAGGAUCACCCAUGUUGAGGAUCACCCAUGUCCCGUCCCUUGGCAGCCAGCAUGAGGAU [Exclusion Theophylline B 2] shows apparent KD of MS2 coat protein of 20 nM or higher. Not fulfilled

Could you please find out whether AUAUGAUCAUACGAUACCAGAAAUGGUAUUCCUUUAUUUCUUACAUGAGGAUCACCCAUGUUCCCUUGGCAGCGUAUGAUCAUAU [ETHB #3] has apparent KD of MS2 coat protein that meets 20 nM or exceeds it? Fulfilled

Form field: apparent KD of MS2 coat protein at least 20 nM? Entry: ACCUUACAUGAGGAUCACCCAUGUCGUGAUACCAGAAACCACGUAUUCCCUUGGCAGCACACCCGUGAUGAGAUUGUCGGUUUUG [theeternabot_sameState_MS2_Theo_A_43] Fulfilled

Please indicate if the recorded apparent KD of MS2 coat protein for AAUAAUAAGGCGGCCGCCACUAAACAUGAGGAUCACCCAUGUCUCGAGGGCUUGCGUUGGGAAAGUAGGACCGGGCCAAUAAUAA [Exclusion - Tryptophan B (Freestyle 7)] meets or exceeds 20 nM. Not fulfilled

###

# System: K4 kissing-loop RNA reporter;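 note: bound reporter read as fluorescence of individual clusters on recovered sequencing chips by microscopy, with normalized cluster intensities fitted with a binding model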
# assay_protocol: apparent KD of K4 kissing-loop reporter; higher = weaker reporter binding
# experimental_parameters: Eterna round: R107; input ligand: FMN 200 uM
measured_endpoint: apparent KD of K4 kissing-loop reporter (µM)
All answers are understood in µM, so give the number only.

Suppose we examine the sequence GGAGUUACCUGGGAUACCAGUCGGAGUCCCAGAGCUCGGAGUGAUGUUCUGGGAUGUUUCGGCCCUUGGCAGCUCUGGGACUCCC [#2 Exclusion - Theophylline B Attempt #9 (HarryS)] ; what apparent KD of K4 kissing-loop reporter value has been reported? 0.893

I have this sequence here, AGCGAUGUUUUCUCUAAGAGUGAUGUUUUUCGAGGACCGGUACGGCCGCCACUCGAAUAAAGAGUGUGGUAGUGAGCUGUUGACU [qqmullin] , and I need its recorded apparent KD of K4 kissing-loop reporter. 0.622

# query: apparent KD of K4 kissing-loop reporter of entry CGCAGUGAUGUUGCGAGUAGCUACAGGGAAGGAGCGCUUUAGUAAGCAGGUAGGUCGCCCACGCAGUGAUGUUGCGUCAUAGGGU [Exclusion Arginine A GF 19] 0.118

What does the data say about its apparent KD of K4 kissing-loop reporter? Entry: GCCUGGGCCCGAAGGAGCGCCGUGACAGGUUACUGCAUUGAGCAGUGAUGUUGCUCAAUCUGGCAGGUAGGUCGCGGGCCCAGGC 0.12

Given AGUGAUGUGGGAAGGAGCGGUAUAAGAAUUCAGUGAUGUUGAAGUGUUGCUGUAAUAAAGAGCCAGGUAGGUCGCCUAGAUGUUA [KL-XARG B30] , state its recorded apparent KD of K4 kissing-loop reporter. 0.811

I'd like to know its apparent KD of K4 kissing-loop reporter. The sequence in question is UAGGAGUGAUGUUCCAUGUCUUGAGCCGAAGGAGCGCCUUUCUAGGCAGGUAGGUCGCGGCAGAAGGUACCAGUGAUGUUGGAAA [Same State Arginine A GF8] 0.249

Could you tell me which apparent KD of K4 kissing-loop reporter is on file for GCUACUGCUGAAGGAUAUAUCAAUAGAGUGAUGUUCUAUGUCGGUAGCCCGAAAGGGCUACCGACGAUAGAAGGUCAGCAGUAGC ? 0.113

Need apparent KD of K4 kissing-loop reporter of GUUCGAUUCUGAGUGAUGUUGAGAAUUGAGAAGGAUAUCCAGAAAAGGAGAAGGUCUACGUCAUGCGCCUCGAUUUGCUAGCUGC [theeternabot_exclusion_KL_FMN_A_50] , thanks. 0.835

Give its apparent KD of K4 kissing-loop reporter value. Item: AGAUGACAGGGAGGAUAUCCUAAUAUGGGUGAUGUUAGCGAUGUUGAAGGUGUAGUGAUGUUAUGCGGAGAAGGCCCUGUUGUUU [BDazzled - #23 - Exc. FMN B] 0.0824

Requested field: apparent KD of K4 kissing-loop reporter. Item: GCCGUAGAUUGAAGGAGCGUUCUUACUGAUUACGGCAGCCGGAAGUGAUGUUUCCAGGUGGAACAGGUAGGUCGCAAUCUACGGC 0.104

###

Please provide measured apparent KD of MS2 coat protein for the entries that follow.
# Test system: MS2 coat protein
# assay_protocol: apparent KD of MS2 coat protein; designed switch direction (-1 OFF switch, 1 ON switch): -1; higher = weaker reporter binding
# experimental_parameters: input ligand: FMN 200 uM

I am curious: what apparent KD of MS2 coat protein value has been reported for CCGGAAAUACAGGAUAUAGGAGUCAAUAGACUCCUAGAAGGGUAUACAUGAGGAUCACCCAUGUGUCCUACCGG [Fiskers Ex 6 - 66] (Eterna round: R96, puzzle: Exclusion 6) ? 39.9 nM

Which apparent KD of MS2 coat protein is reported for this sequence? AGCGAGGCAGGAUAUACAUGAGGAUCACCCAUGUGCUUGCAUGGCGUGGGACGUCAACGUAGAAGGGCCAUGCC [EX3 #68] (Eterna round: R97, puzzle: Exclusion 3) 76.3 nM

Recorded apparent KD of MS2 coat protein for UUGUGCACGCUGCGGUCCUACAUGAGGAUCACCCAUGUGGUCUGGUGGCGUGGGUCGCCGGACUUGGCUCGUCUUGA [salish99_S_TOV1_R5_027] (Eterna round: R97, puzzle: Sensor, turn-off variant 1) , please? 18.4 nM

Query: apparent KD of MS2 coat protein; subject: GCAGCAUAGUCGGAAUACGACAUACAUGAGGAUCACCCAUGUCAGGAUAUGGUCUGGAUUACAGGCCAGAAGGGACAAAGCUGC [Eli exng3 - 007] (Eterna round: R96, puzzle: Exclusion NG 3) 24.8 nM

Look up apparent KD of MS2 coat protein for this sequence: AGAGUGCUGCGAGGAUAUACAUGAGGAUCACCCAUGUUUUCCUGUGAGGCUUUGCCUCACAGGAUGUAGAAGGCGCAGUACUCA [Mat - Exclusion NG 2 - Mod of JL - D38] (Eterna round: R96, puzzle: Exclusion NG 2) 9.32 nM

Sample GGAGCAAGUGUCAGGAUAUCGUGGUCGAUAGAUCACGAGAAGGGACAUGAGGAUCACCCAUGUGCCUCAGCUCC [Mat - Exclusion 4 - Eli Mod - D60] (Eterna round: R97, puzzle: Brourd's mod of Exclusion 4) — what was its apparent KD of MS2 coat protein? 736 nM

What apparent KD of MS2 coat protein value was documented for this sequence, GGAUGCUGAGUAAGGAUAUGGUAGGCUUGCGCAAACCAGAAGGUACAUGAGGAUCACCCAUGUAAGCAUCCAGU [eternacac ex4r4 #4] (Eterna round: R97, puzzle: Brourd's mod of Exclusion 4) ? 16.3 nM

Can you look up the measured apparent KD of MS2 coat protein of UAAGAUUACCGAGGAUAUGGUAGUACAUAUUAACCAGAAGGCGGACUCAACAUGAGGAUCACCCAUGUAUAAAGGGUAUUAGGU [JR_ExcNG1_Sub042] (Eterna round: R96, puzzle: Exclusion NG 1) for me? 84.7 nM
